- Tested on: A-375
- Procedure text: Cytotoxicity against human A375 cells after 72 hrs by MTT assay
- Type: functional, cell-based
- Condition description: A-375, 72 h
Parameter: pIC50
On this scale, pIC50 is minus log10 of a concentration expressed in M (mol/L).

Some solved entries appear below for comparison.
smiles_str=C=C(C)[C@@H]1CC[C@]2(COC(=O)CCC(=O)N3CCCC3)CC[C@]3(C)[C@H](CC[C@@H]4[C@@]5(C)CC[C@H](O)C(C)(C)[C@@H]5CC[C@]43C)[C@@H]12 parameter=pIC50 recorded_result=4.90
smiles_str=C=C(C)[C@@H]1CC[C@]2(COC(=O)CCC(=O)N3CCCCC3)CC[C@]3(C)[C@H](CC[C@@H]4[C@@]5(C)CC[C@H](O)C(C)(C)[C@@H]5CC[C@]43C)[C@@H]12 parameter=pIC50 recorded_result=5.12
smiles_str=C=C(C)[C@@H]1CC[C@]2(COC(=O)CCC(=O)O)CC[C@]3(C)[C@H](CC[C@@H]4[C@@]5(C)CC[C@H](O)C(C)(C)[C@@H]5CC[C@]43C)[C@@H]12 parameter=pIC50 recorded_result=4.75
smiles_str=C=C(C)[C@@H]1CC[C@]2(COC(=O)/C=C/C(=O)O)CC[C@]3(C)[C@H](CC[C@@H]4[C@@]5(C)CC[C@H](O)C(C)(C)[C@@H]5CC[C@]43C)[C@@H]12 parameter=pIC50 recorded_result=4.63
smiles_str=C=C(C)[C@@H]1CC[C@]2(COC(=O)CCC(=O)N3CCOCC3)CC[C@]3(C)[C@H](CC[C@@H]4[C@@]5(C)CC[C@H](O)C(C)(C)[C@@H]5CC[C@]43C)[C@@H]12 parameter=pIC50 recorded_result=4.73
smiles_str=C=C(C)[C@@H]1CC[C@]2(COC(=O)CCC(=O)N(CC)CC)CC[C@]3(C)[C@H](CC[C@@H]4[C@@]5(C)CC[C@H](O)C(C)(C)[C@@H]5CC[C@]43C)[C@@H]12 parameter=pIC50 recorded_result=4.99

Prompt: Quick check: pIC50 of "C=C(C)[C@@H]1CC[C@]2(COC(=O)/C=C/C(=O)N3CCCCC3)CC[C@]3(C)[C@H](CC[C@@H]4[C@@]5(C)CC[C@H](O)C(C)(C)[C@@H]5CC[C@]43C)[C@@H]12" ?
Completion: 4.84
